Molecular target: PDE1C (Homo sapiens (Human), UniProt Q14123)
Sequence (Q14123 whole entry): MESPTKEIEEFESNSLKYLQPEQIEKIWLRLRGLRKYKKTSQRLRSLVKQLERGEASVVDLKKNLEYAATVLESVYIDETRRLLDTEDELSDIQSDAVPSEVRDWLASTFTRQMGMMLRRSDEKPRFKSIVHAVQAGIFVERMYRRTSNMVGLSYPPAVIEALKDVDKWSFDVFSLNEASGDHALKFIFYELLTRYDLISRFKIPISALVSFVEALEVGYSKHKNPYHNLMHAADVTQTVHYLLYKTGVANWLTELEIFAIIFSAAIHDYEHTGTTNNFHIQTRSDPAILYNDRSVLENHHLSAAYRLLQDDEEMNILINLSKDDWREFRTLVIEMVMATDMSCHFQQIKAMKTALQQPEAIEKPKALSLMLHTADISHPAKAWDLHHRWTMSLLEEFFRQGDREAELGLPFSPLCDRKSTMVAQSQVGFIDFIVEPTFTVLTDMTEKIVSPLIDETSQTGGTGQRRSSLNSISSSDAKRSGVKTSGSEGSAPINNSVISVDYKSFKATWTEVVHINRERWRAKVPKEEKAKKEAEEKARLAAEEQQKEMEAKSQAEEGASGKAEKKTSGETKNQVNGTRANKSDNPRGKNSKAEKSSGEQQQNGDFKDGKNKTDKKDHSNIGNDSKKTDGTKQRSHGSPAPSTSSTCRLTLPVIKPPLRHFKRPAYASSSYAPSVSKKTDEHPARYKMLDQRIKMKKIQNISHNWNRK
Assay: PDE1 inhibition assay, PDE1C
Assay type: biochemical
Conditions: @ 1 μM compound; read-out: PDE1 C, % inhibition @ 1 μM
Readout Kind: inhibition at 1 µM (%)

Worked examples follow.
CCOc1ncccc1-c1cc(N[C@@H]2CCC[C@H]2OC)c2c(cnn2C)n1	20
CCOc1ncccc1-c1cc(N2CCCC2)c2c(cnn2C2COC2)n1	56
CCOc1ncccc1-c1cc(N2CCCC2)c2c(cnn2C(C)C)n1	50

a = CCOc1ncccc1-c1cc(NC2CCC(OC)C2)c2c(cnn2C)n1 (stereo not drawn)
b = CCOc1ncccc1-c1cc(NC2CCOC2)c2c(cnn2C2COC2)n1 (racemic)
c = CCOc1ncccc1-c1cc(N2CCCC2)c2c(cnn2C2CCOC2)n1 (racemic)
Reorder the items by inhibition at 1 µM, least to greatest. Returns: the labels arranged in the requested order.
b, c, a
(b: 20%, c: 29%, a: 47%)

A = CCOc1ncccc1-c1cc(N2CCCC2)c2c(n1)c(C)nn2C
B = CCOc1ncccc1-c1cc(N2CCC(C)(F)C2)c2c(cnn2C)n1 (racemic)
Of the two listed items, A and B , which carries the larger inhibition at 1 µM figure? Answer format: the label of the selected item.
A
(A: 49%, B: 26%)
